Sourced from PubChem BioAssay

biological target: Torsin-1A-interacting protein 1 (Homo sapiens); assay: LAP1 binders from COS7 cell lysate, primary screen, small-molecule microarray, 635/667 nm fluorescence (AID 1116); details: COS7-hLAP1 lysate binding, 635 nm fluorescence, higher = more signal
Metric: composite z-score
// return a plain number; no unit text

These solved cases illustrate the format of a correct answer.
Cc1ccc(F)cc1S(=O)(=O)N[C@@H]1CCN(Cc2cccc3[nH]ccc23)C1
0.852
O=C1O[C@H](c2ccccc2)[C@H](c2ccccc2)N2[C@H]1[C@@H](C(=O)N1CCCCCCC1)[C@]1(C(=O)Nc3ccc(C#CC4(O)CCCCCC4)cc31)[C@H]2c1ccccc1OCCO
5.71

composite z-score lookup needed for "C=C(COC)C(=O)CC[C@H](OC(C)=O)c1ccc(OCCO)cc1" , thanks.
3.4

composite z-score lookup needed for "Nc1cc(Br)ccc1C(=O)O" , thanks.
0.0546

composite z-score lookup needed for "O=C(O)[C@@H]1C[C@@H]2C(=O)N3CCC[C@H]3C(=O)N2[C@@H]1c1cccc(OCCO)c1" , thanks.
3.85

composite z-score lookup needed for CCOC(=O)C1=CCC(c2ccco2)N(S(=O)(=O)c2ccc(C)cc2)C1 (configuration not stated) , thanks.
0.761

composite z-score lookup needed for "C=CCOC(=O)[C@H]1[C@@H]2C(=O)O[C@@H](c3ccccc3)[C@@H](c3ccccc3)N2[C@@H](c2ccc(OCCOC(=O)[C@H]3C[C@H]4C(=O)N[C@@H](CCCCNC(C)=O)C(=O)N4[C@H]3c3cccc(OCCO)c3)cc2)[C@]12C(=O)Nc1ccc(I)cc12" , thanks.
0.339
